# Test Summary: qHTS assay to identify small molecule agonists of the androgen receptor (AR) signaling pathway in the presence of an antagonist - cell viability counter screen (AID 1259379);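 also: MDA-kb2 human breast cancer cells carrying an MMTV luciferase reporter; % is scaled to controls: 0 for no effect and ±100 for the full control effect; nearly all actives have a fitted effect of over 25% in size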
# Condition Label: MDA-kb2 viability, CellTiter-Fluor, 16 h; series mostly up to 92.4 µM
Inconclusive results are not listed. Active and inactive are the calls of the source. Calls follow the shape of the dose curve; as a rule, active = well fitted cell-killing curve with a large enough effect in the repeat runs; inconclusive = weak or mixed curves, or effect the other way; inactive = flat fitted curve, though single readings scatter.
Quantity Kind: activity change, negative = cytotoxicity

INSERT INTO assay_data (compound, result_value) VALUES
  ('Cc1nccn1CC1CCc2c(c3ccccc3n2C)C1=O (centres undefined)', 'inactive'),
  ('CCCCCCCCCCCCCCCCCCOCC(O)CO (centres undefined)', 'inactive'),
  ('NC(=S)Nc1cccc2ccccc12', '-0.514% [at 8.39 µM] (inactive)'),
  ('CCCCCN(CCCCC)C(=O)C(CCC(=O)O)NC(=O)c1ccc(Cl)c(Cl)c1 (centres undefined)', 'inactive');

###

# Test Summary: qHTS RealTime-Glo MT Cell Viability Assay in HEK293 cells - 16 hour (AID 1224872); also: potency is read from the fitted curve at half-maximal effect; nearly all actives have a fitted effect of over 50% in size
# Condition Label: RealTime-Glo luminescence; series mostly up to 76.8 µM
Records with an inconclusive call do not appear. Active and inactive are the calls of the source. Calls come from the whole dose curve; as a rule, active = well fitted cell-killing curve with a large enough effect in the repeat runs; inconclusive = weak or mixed curves, or effect the other way; inactive = flat fitted curve, though single readings scatter.
Kindly state Potency for each of the entries shown.

Some compounds with recorded Potency:
INSERT INTO measurements (smiles_notation, quantity_kind, result_value) VALUES
  ('c1cc(CN2CCCCC2)cc(OCCCNc2nc3ccccc3s2)c1', 'Potency', '9.52 µM (active)'),
  ('CN(C)C(=O)C(CCN1CCC(O)(c2ccc(Cl)cc2)CC1)(c1ccccc1)c1ccccc1', 'Potency', '8.49 µM (active)'),
  ('CCn1c(=O)c2c(nc(/C=C/c3ccc(OC)c(OC)c3)n2C)n(CC)c1=O', 'Potency', '1.69 µM (active)');

Moving on to another compound below.
So what does the record say about Potency for CSc1nc(NC2CC2)nc(NC(C)(C)C)n1 ?
24.5 µM (active)

###

# Test Summary: qHTS assay to identify small molecule agonists of the estrogen receptor alpha (ER-alpha) signaling pathway in the presence of an antagonist - cell viability counter screen (AID 1259386);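 also: cells exposed to compounds for 22 h at 37 °C before the viability read; % is scaled to controls: 0 for no effect and ±100 for the full control effect; nearly all actives have a fitted effect of over 30% in size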
# Condition Label: VM7Luc4E2 viability, CellTiter-Fluor fluorescence, 22 h; series mostly up to 92.4 µM
Inconclusive results are not listed. Activity calls are given as the source filed them. The call rests on the fitted dose curve; in most records, active means well fitted cell-killing curve with a large enough effect in the repeat runs; inconclusive means weak or mixed curves, or effect the other way; inactive means no such curve, though single readings can be large or run the other way.
Quantity Kind: activity change, negative = cytotoxicity

Some compounds with recorded activity change, negative = cytotoxicity:
INSERT INTO assay_data (compound, result_value) VALUES
  ('CSc1nc(NC2CC2)nc(NC(C)(C)C)n1', 'inactive'),
  ('O=C(O)/C=C/c1ccc(/C=C/C(=O)O)cc1', 'inactive'),
  ('Cc1cc(C)c(NC(=O)CN(CC(=O)O)CC(=O)O)c(C)c1Br', 'inactive'),
  ('O=S(=O)(c1cccc2cnccc12)N1CCCNCC1', 'inactive'),
  ('O=C(O)c1ccccc1-c1ccc(C(F)(F)F)cc1', 'inactive');

Each compound below has a recorded value; state its activity change, negative = cytotoxicity.
1. CCCC(C)C(=O)O (configuration not stated)
2. CCCCCN(CCCCC)C(=O)C(CCC(=O)O)NC(=O)c1ccc(Cl)c(Cl)c1 (configuration not stated)
3. Nc1cc(N)cc(C(=O)O)c1
4. CCn1cc(C(=O)O)c(=O)c2cc(F)c(N3CCN(C)CC3)cc21
5. CNc1ncnc2nc[nH]c12
6. Nc1[nH]c(=O)ncc1F
7. CSc1ccc(C=O)cc1
8. CC(C)c1cccc(O)c1

1: inactive; 2: inactive; 3: inactive; 4: 0.853% [at 19 µM] (inactive); 5: inactive; 6: inactive; 7: inactive; 8: inactive

Each compound below has a recorded value; state its activity change, negative = cytotoxicity.
1. OCC(O)[C@@H](O)[C@H](O)[C@H](O)CO[C@H]1O[C@H](CO)[C@@H](O)[C@H](O)[C@H]1O (some centres not stated)
2. O=C(CCOCCOCCOCCOCCC(=O)Nc1c(I)cc(I)c(C(=O)O)c1I)Nc1c(I)cc(I)c(C(=O)O)c1I

1: inactive; 2: inactive

Each compound below has a recorded value; state its activity change, negative = cytotoxicity.
1. CCN(CC)S(=O)(=O)c1ccc(C(=O)O)cc1
2. CNC(=O)c1c(I)c(NC(=O)CCCCC(=O)Nc2c(I)c(C(=O)O)c(I)c(C(=O)NC)c2I)c(I)c(C(=O)O)c1I
3. C[N+](C)(C)CC[N+]1(C)Cc2c(Cl)c(Cl)c(Cl)c(Cl)c2C1
4. CC(C)CCCCCCN
5. N#CCN(CC#N)CCN(CC#N)CC#N
6. CCCCCCCCCCCl
7. C(=C(c1ccccc1)c1ccccc1)c1ccccc1
8. CCN1CCCC1CNC(=O)c1cc(S(N)(=O)=O)ccc1OC (configuration not stated)

["inactive", "inactive", "inactive", "inactive", "inactive", "inactive", "inactive", "inactive"]
